# subject_of_test: Induced myeloid leukemia cell differentiation protein Mcl-1 (Homo sapiens)
# assay_protocol: blockers of Bid binding to Mcl-1 – biochemical, TR-FRET, dose response (AID 1418)
# experimental_context: Mcl-1/Bid peptide binding, TR-FRET (europium/Dy647), 2 hr
Activity calls are given as the source filed them. The rule behind the calls is not given here.
Permitted responses: active, inactive

Solved cases (4 shown):
[
  {
    "compound": "COc1ccc(N2C(=O)CC(S/C(N)=N/N=C/c3ccnc4ccccc34)C2=O)cc1 (stereo not given)",
    "qualitative_label": "inactive"
  },
  {
    "compound": "CCOc1cccc(CNCCO)c1OCc1ccc(Cl)cc1Cl",
    "qualitative_label": "inactive"
  },
  {
    "compound": "O=C(c1ccccc1)N1CCN(Cc2ccccc2Br)CC1",
    "qualitative_label": "inactive"
  },
  {
    "compound": "CCN(CC)S(=O)(=O)c1ccc(NC(=O)Nc2cccc(C(F)(F)F)c2)cc1",
    "qualitative_label": "inactive"
  }
]

Problem: For COC(=O)c1cc2sc(Cl)cc2n1CC(=O)Nc1cccc(SC)c1 , what call appears in the results of this test?
Solution: inactive

Problem: Please state the recorded outcome for this compound: COc1ccc(CN2C(=O)/C(=C/c3ccc(-c4ccc(Cl)c(C(=O)O)c4)o3)SC2=S)cc1
Solution: active

Problem: Hey, what did the test say about Cc1nc(NC(=O)c2ccccc2)sc1-c1csc(Nc2ccc(C(=O)O)cc2)n1 ?
Solution: active

----------
# subject_of_test: Induced myeloid leukemia cell differentiation protein Mcl-1 (Homo sapiens) (UniProt Q07820)
# Sequence (Q07820 whole entry, looked up): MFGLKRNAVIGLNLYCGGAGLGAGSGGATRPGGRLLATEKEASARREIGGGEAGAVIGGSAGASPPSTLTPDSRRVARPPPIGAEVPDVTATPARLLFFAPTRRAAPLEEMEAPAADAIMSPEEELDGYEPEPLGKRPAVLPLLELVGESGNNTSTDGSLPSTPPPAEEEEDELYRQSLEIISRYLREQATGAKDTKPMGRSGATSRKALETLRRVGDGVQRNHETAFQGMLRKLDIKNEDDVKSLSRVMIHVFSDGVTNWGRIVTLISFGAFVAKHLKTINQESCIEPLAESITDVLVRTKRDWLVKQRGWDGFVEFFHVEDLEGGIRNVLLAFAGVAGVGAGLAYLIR
# assay_protocol: blockers of Bid binding to Mcl-1 – biochemical, TR-FRET, dose response (AID 1418)
# experimental_context: Mcl-1/Bid peptide binding, TR-FRET (europium/Dy647), 2 hr
Active and inactive are the calls of the source. How the calls were made is not given here.
readout_type: IC50

Problem: Could you share which IC50 value was measured for c1ccc2c(c1)nnn2-c1ncnc2sc3c(c12)CCCC3 ?
Solution: > 54 µM (inactive)

Problem: Look at this compound and give its reported IC50. Cc1cc(C)nc(NCC(O)COc2ccccc2C)n1 (stereo not drawn)
Solution: > 54 µM (inactive)

Problem: Fill in the blank: the reported IC50 of CCOC(=O)c1ccc(NC(=O)Oc2ccccc2)cc1 is ____.
Solution: > 54 µM (inactive)
